biological target: endogenous CETP from serum (Homo sapiens (Human)); assay: RTA assay in 95% human serum (CETP-catalyzed CE and TG transfer, endogenous CETP); format: biochemical; conditions: RTA assay, 95% human serum; read-out: RTA (95% HS)
Measurement Name: IC50 (nM)

- Compound: "COc1ccc(CCc2nnc(N)o2)cc1-c1ccc(C(F)(F)F)cc1[C@@H]1CCC[C@H]2[C@@H](c3cc(C(F)(F)F)cc(C(F)(F)F)c3)OC(=O)N12 [Example 82]"
  Unit Annotation: "nM"
  Endpoint Value: 1320
- Compound: "COc1ccc([C@H]2[C@H](C)NC(=O)[C@@H]2C)cc1-c1ccc(C(F)(F)F)cc1[C@@H]1CC[C@H]2[C@@H](c3cc(C(F)(F)F)cc(C(F)(F)F)c3)OC(=O)N12 [Example 4]"
  Unit Annotation: "nM"
  Endpoint Value: 398
- Compound: "COC(=O)CCc1ccc(OC)c(-c2ccc(C(F)(F)F)cc2[C@@H]2CC[C@H]3[C@@H](c4cc(C(F)(F)F)cc(C(F)(F)F)c4)OC(=O)N23)c1 [Example 1]"
  Unit Annotation: "nM"
  Endpoint Value: 296
- Compound: "COc1ccc(CCc2n[nH]c(=O)o2)cc1-c1ccc(C(F)(F)F)cc1[C@@H]1CCC[C@H]2[C@@H](c3cc(C(F)(F)F)cc(C(F)(F)F)c3)OC(=O)N12 [Example 80]"
  Unit Annotation: "nM"
  Endpoint Value: 942

###

Reported IC50 values follow for various molecules
molecular target: endogenous CETP from serum (Homo sapiens (Human), UniProt P11597); assay: RTA assay in 95% human serum (CETP-catalyzed CE and TG transfer, endogenous CETP); type: biochemical; conditions: RTA assay in 95% human serum; read-out: IC50
Sequence (P11597 18-493 limits assumed): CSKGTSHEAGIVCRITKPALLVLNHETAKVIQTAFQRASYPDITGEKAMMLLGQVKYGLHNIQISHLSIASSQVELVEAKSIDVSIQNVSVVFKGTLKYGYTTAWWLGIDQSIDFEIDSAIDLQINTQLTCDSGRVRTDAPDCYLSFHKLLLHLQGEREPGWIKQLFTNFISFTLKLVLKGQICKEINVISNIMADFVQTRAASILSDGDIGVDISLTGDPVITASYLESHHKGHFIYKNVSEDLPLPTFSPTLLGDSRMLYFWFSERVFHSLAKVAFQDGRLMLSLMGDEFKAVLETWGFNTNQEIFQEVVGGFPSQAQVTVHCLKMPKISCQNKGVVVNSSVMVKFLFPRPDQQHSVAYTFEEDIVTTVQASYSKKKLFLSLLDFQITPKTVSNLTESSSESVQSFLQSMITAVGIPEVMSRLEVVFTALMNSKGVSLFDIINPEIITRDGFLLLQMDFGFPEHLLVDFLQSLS
Measurement Name: IC50 (nM)

- Compound String: "COc1ccc(F)cc1-c1ccc(C(F)(F)F)cc1[C@@H]1CC[C@H]2[C@@H](c3cc(C(F)(F)F)cc(C(F)(F)F)c3)OC(=O)N12"
  Measurement Name: "IC50"
  Endpoint Value: 166
- Compound String: "COc1ncc(C(C)C)cc1-c1ccc(C(F)(F)F)cc1[C@@H]1CC[C@H]2[C@@H](c3cc(C(F)(F)F)cc(C(F)(F)F)c3)OC(=O)N12"
  Measurement Name: "IC50"
  Endpoint Value: 44.7
- Compound String: "COc1cc(F)c(C(C)C)cc1-c1cnc(N(C)C)nc1[C@@H]1C=C[C@H]2[C@@H](c3cc(C(F)(F)F)cc(C(F)(F)F)c3)OC(=O)N12"
  Measurement Name: "IC50"
  Endpoint Value: 695
- Compound String: "COc1ncc(-c2c(C)cc(C(=O)O)cc2C)cc1-c1ccc(C(F)(F)F)cc1[C@@H]1CC[C@H]2[C@@H](c3cc(C(F)(F)F)cc(C(F)(F)F)c3)OC(=O)N12"
  Measurement Name: "IC50"
  Endpoint Value: 47
- Compound String: "COc1ncccc1-c1ccc(C(F)(F)F)cc1[C@@H]1CC[C@H]2[C@@H](c3cc(C(F)(F)F)cc(C(F)(F)F)c3)OC(=O)N12"
  Measurement Name: "IC50"
  Endpoint Value: 316
- Compound String: "O=C1O[C@H](c2cc(C(F)(F)F)cc(C(F)(F)F)c2)[C@@H]2CC[C@@H](c3cc(C(F)(F)F)ccc3-c3cc(F)ccc3F)N12"
  Measurement Name: "IC50"
  Endpoint Value: 104
